assayInfo: qHTS for Inhibitors of Plasmodium falciparum (HB3) proliferation (AID 504318); further: nearly all actives have a fitted effect of over 60% in size
assayContext: P. falciparum HB3 in erythrocytes, SYBR Green DNA, 72 h; series mostly up to 7.21 µM
Inconclusive results are not listed. Active and inactive are the calls of the source. The call rests on the fitted dose curve; in most records, active means well fitted inhibition curve with a large enough effect; inconclusive means small, poorly fitted or top-dose-only effect; inactive means flat fitted curve, though single readings scatter.
Possible outcomes: 1.0 for active, 0.0 for inactive

                                    compound  grouplabel
 0  COCCN1C(=O)C2=C(C1=O)C1N(C)c3ccccc3[C@@]13C[C@@H](CO)N=C3N2 (some centres undefined)         0.0
 1  CCN1C(=NCC(C)C)N[C@H](c2ccccc2)[C@H](C(=O)OC)[C@H]1C         0.0
 2  COC(=O)C1=C(C)N(Cc2ccccc2)C(=O)NC1c1cccc(F)c1 (centres undefined)         0.0
 3  COC(=O)C1=C(C(=O)OC)[C@@H]2N(C)c3ccccc3[C@@]23C[C@@H](CO)N(C(=O)NC2CCCC2)C3=N1         1.0
 4  CCCC[C@]12Cc3cc(C#N)ccc3[C@H](O1)c1c(c3cc(F)ccc3oc1=O)O2         0.0
 5  CCOC(=O)CN1C(=O)NC(c2cccs2)C(C(=O)OC)=C1C (centres undefined)         0.0
 6  CCCC[C@]12Cc3c(ccc4ccccc34)[C@H](O1)c1c(cc(C)oc1=O)O2         0.0
 7  COc1ccc2c(c1)O[C@H](c1ccc3c(c1)OCO3)[C@@H](OC(=O)Nc1cc(OC)c(OC)c(OC)c1)C2=O         0.0
 8           Cc1ccc(S(=O)(=O)OCCc2ccccc2)cc1         0.0
 9  COC1=C(C(=O)c2ccccc2)C(=O)[C@@]2(CC=C(C)C)C[C@@H]([S+](=O)([O-])c3ccccc3)C(C)(C)[C@@]1(CC=C(C)C)C2=O         1.0
10  COC[C@H]1O[C@@H]2O[C@@H]1[C@@H](C=Cc1ccccc1)C[C@H]2C         0.0
11  OC[C@H]1O[C@H](c2ccccc2)C=C[C@H]1OCc1cccc(Br)c1         0.0
12  COC(=O)[C@]1(CC=Cc2ccccc2)C=C[C@@H](C)[C@H](c2ccccc2Br)N1C(=O)C(F)(F)F         1.0
13  CCCCC1=CC2=C(c3ccco3)C(=O)C(C)(OC(=O)c3ccc(OC)cc3)C(=O)C2=CN1Cc1ccc(OC)cc1 (centres undefined)         0.0
14  O=C(OCC(F)(F)F)[C@H](O)[C@@H](O)C(=O)OCC(F)(F)F         0.0
15  O=c1oc2ccccc2c2c1[C@H]1O[C@](c3ccsc3)(Cc3ccccc31)O2         0.0
16  COc1ccc2c(c1)C[C@@H](C)O[C@]21C(=O)Nc2ccccc21         0.0
17  Cc1cc2c(nc1C)CCCN2CC(O)CN1CCN(C)CC1 (centres undefined)         0.0
18  COCCN1C(=NCCc2cccnc2)NC(c2ccccc2)C(C(=O)OC)=C1C (centres undefined)         0.0

----------
measuredOn: Voltage-gated inwardly rectifying potassium channel KCNH2 (Homo sapiens) (UniProt Q12809)
Sequence (Q12809 whole entry, looked up): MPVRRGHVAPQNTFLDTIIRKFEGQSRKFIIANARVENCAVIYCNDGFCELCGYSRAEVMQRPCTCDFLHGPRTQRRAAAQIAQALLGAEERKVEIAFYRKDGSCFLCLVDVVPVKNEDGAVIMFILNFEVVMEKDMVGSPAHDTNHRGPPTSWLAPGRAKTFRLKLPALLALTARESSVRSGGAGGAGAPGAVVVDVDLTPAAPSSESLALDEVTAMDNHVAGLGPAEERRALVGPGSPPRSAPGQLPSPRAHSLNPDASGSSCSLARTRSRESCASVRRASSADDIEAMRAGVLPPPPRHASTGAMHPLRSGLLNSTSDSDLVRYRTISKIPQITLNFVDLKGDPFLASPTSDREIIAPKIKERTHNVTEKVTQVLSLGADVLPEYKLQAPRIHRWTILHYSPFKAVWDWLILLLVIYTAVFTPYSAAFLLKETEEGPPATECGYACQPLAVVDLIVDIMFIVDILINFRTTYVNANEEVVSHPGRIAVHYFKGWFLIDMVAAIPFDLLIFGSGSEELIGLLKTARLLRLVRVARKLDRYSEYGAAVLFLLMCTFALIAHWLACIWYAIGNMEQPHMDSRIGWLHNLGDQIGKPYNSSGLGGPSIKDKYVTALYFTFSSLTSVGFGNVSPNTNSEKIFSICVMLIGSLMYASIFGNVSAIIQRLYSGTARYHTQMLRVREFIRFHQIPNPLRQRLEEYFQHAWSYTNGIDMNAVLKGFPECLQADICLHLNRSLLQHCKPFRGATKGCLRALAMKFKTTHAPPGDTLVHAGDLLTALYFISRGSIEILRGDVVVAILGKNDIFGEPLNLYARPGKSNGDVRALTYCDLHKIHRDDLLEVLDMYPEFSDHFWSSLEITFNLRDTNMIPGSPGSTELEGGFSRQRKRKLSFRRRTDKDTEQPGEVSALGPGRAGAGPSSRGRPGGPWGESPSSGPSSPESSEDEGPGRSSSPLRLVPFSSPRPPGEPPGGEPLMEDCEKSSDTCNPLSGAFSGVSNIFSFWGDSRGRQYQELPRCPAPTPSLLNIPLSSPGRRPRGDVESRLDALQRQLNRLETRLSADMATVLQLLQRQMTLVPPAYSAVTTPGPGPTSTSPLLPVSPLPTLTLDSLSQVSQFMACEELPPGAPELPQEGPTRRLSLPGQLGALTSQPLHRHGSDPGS
assayInfo: qHTS Assay for Small Molecule Inhibitors of the Human hERG Channel Activity (AID 588834);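 further: lower thallium flux fluorescence means stronger hERG block; nearly all actives have a fitted effect of over 50% in size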; further: potency means the concentration at half of the fitted maximal effect
assayContext: U2OS BacMam hERG, FluxOR thallium flux fluorescence; series mostly up to 46.1 µM
Method: NIH Chemical Genomics Center [NCGC] National Institutes of Environmental Health Sciences [NIEHS] National Toxicology Program [NTP] We have developed a 1536-well cell-based assay for quantitative high throughput screening (qHTS) to determine in vitro hERG channel blockage as a measure of cardio toxicity with small molecules. […] 13. Read fluorescence Intensity on FDSS for 10 Sec with 1 sec interval […] 15. Read fluorescence Intensity on FDSS for 2 min with 1 sec interval […]
Records with an inconclusive call do not appear. The source made the active and inactive calls. Calls follow the shape of the dose curve; as a rule, active = well fitted inhibition curve with a large enough effect; inconclusive = small, poorly fitted or top-dose-only effect; inactive = flat fitted curve, though single readings scatter.

compound	measuredOn	Potency
NC(CCC(=O)NCS(=O)(=O)O)C(=O)O (centres undefined)	Voltage-gated inwardly rectifying potassium channel KCNH2 (Homo sapiens) (UniProt Q12809)	inactive
CC[C@H](C)[C@H]1O[C@]2(CC[C@@H]1C)C[C@@H]1C[C@@H](C/C=C(\C)[C@@H](O[C@H]3C[C@H](OC)[C@@H](O[C@H]4C[C@H](OC)[C@@H](O)[C@H](C)O4)[C@H](C)O3)[C@@H](C)/C=C/C=C3\CO[C@@H]4[C@H](O)C(C)=C[C@@H](C(=O)O1)[C@]34O)O2	Voltage-gated inwardly rectifying potassium channel KCNH2 (Homo sapiens) (UniProt Q12809)	inactive
CCCn1c(=O)c2[nH]c(-c3ccc(OCC(=O)Nc4ccc(C#N)cc4)cc3)nc2n(CCC)c1=O	Voltage-gated inwardly rectifying potassium channel KCNH2 (Homo sapiens) (UniProt Q12809)	inactive
C/C=C1\C(=O)CC2C3CCC4=CC(=O)CC[C@]4(C)C3CC[C@]12C (some centres undefined)	Voltage-gated inwardly rectifying potassium channel KCNH2 (Homo sapiens) (UniProt Q12809)	inactive
C1CCC(N=C(NC23CC4CC(CC(C4)C2)C3)N2CCOCC2)CC1	Voltage-gated inwardly rectifying potassium channel KCNH2 (Homo sapiens) (UniProt Q12809)	11.2 µM (active)
S=C(Nc1ccccc1)Nc1nccs1	Voltage-gated inwardly rectifying potassium channel KCNH2 (Homo sapiens) (UniProt Q12809)	inactive
Nc1c(S(=O)(=O)O)cc(Nc2ccc(Nc3nc(Cl)nc(Nc4ccc(S(=O)(=O)O)cc4)n3)c(S(=O)(=O)O)c2)c2c1C(=O)c1ccccc1C2=O	Voltage-gated inwardly rectifying potassium channel KCNH2 (Homo sapiens) (UniProt Q12809)	inactive
C[N+](C)(C)CCC(=O)c1cccc2ccccc12	Voltage-gated inwardly rectifying potassium channel KCNH2 (Homo sapiens) (UniProt Q12809)	inactive
O=S(=O)(NCCNC/C=C/c1ccc(Br)cc1)c1cccc2cnccc12	Voltage-gated inwardly rectifying potassium channel KCNH2 (Homo sapiens) (UniProt Q12809)	2.82 µM (active)

----------
measuredOn: Ubiquitin carboxyl-terminal hydrolase 2 (Homo sapiens) (UniProt O75604)
Sequence (O75604 whole entry, looked up): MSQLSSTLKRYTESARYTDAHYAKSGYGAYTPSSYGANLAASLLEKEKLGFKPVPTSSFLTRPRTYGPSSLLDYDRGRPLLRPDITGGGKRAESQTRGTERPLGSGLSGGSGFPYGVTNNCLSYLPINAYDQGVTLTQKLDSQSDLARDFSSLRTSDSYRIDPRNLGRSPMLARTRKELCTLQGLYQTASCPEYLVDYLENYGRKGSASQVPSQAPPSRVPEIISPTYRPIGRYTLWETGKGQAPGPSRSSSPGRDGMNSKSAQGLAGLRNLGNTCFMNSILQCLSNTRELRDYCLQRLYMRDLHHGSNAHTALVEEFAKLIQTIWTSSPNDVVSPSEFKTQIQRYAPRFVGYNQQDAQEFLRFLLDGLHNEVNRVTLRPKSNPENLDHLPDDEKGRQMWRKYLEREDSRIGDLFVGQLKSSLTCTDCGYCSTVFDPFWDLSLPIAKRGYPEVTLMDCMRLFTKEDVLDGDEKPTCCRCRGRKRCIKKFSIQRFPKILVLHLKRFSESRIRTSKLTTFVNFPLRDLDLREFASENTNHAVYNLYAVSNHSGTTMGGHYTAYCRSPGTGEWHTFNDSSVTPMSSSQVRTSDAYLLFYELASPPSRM
assayInfo: qHTS Validation Assay for Inhibitors of Ubiquitin-specific Protease USP2a Using CHOP2 as the Reporter (AID 463106)
assayContext: USP2a cleavage of CHOP2 reporter, enzymatic; series mostly up to 38.3 µM
Records with an inconclusive call do not appear. Calls of active or inactive are those of the source. Calls follow the shape of the dose curve; as a rule, active = well fitted inhibition curve with a large enough effect; inconclusive = small, poorly fitted or top-dose-only effect, or effect the other way; inactive = flat fitted curve, though single readings scatter.
Outcomes: active, inactive

In [3]: df
Out[3]:
                                        mol                                measuredon  grouplabel
0  Nc1c(S(=O)(=O)O)cc(Nc2ccc(Nc3nc(Cl)nc(Nc4ccc(S(=O)(=O)O)cc4)n3)c(S(=O)(=O)O)c2)c2c1C(=O)c1ccccc1C2=O  Ubiquitin carboxyl-terminal hydrolase 2 (Homo sapiens) (UniProt O75604)      active
1  O=Nc1c(-c2c(O)[nH]c3ccccc23)[nH]c2ccccc12  Ubiquitin carboxyl-terminal hydrolase 2 (Homo sapiens) (UniProt O75604)    inactive
2             CCc1ccc(/C=C2/SC(=S)NC2=O)cc1  Ubiquitin carboxyl-terminal hydrolase 2 (Homo sapiens) (UniProt O75604)    inactive
3    N#C/C(=C\c1ccc(O)c(O)c1)C(=O)Nc1ccccc1  Ubiquitin carboxyl-terminal hydrolase 2 (Homo sapiens) (UniProt O75604)    inactive
4                          CC[N+](CC)(CC)CC  Ubiquitin carboxyl-terminal hydrolase 2 (Homo sapiens) (UniProt O75604)    inactive
5  C[C@H](Cc1ccccc1)Nc1ncnc2c1ncn2[C@@H]1O[C@H](CO)[C@@H](O)[C@H]1O  Ubiquitin carboxyl-terminal hydrolase 2 (Homo sapiens) (UniProt O75604)    inactive
6  O=C1c2ccccc2C(=O)c2c(NCCc3ccc(O)cc3)ccc(NCCc3ccc(O)cc3)c21  Ubiquitin carboxyl-terminal hydrolase 2 (Homo sapiens) (UniProt O75604)    inactive

----------
Test system: CP266
assayInfo: qHTS profiling for inhibitors of Plasmodium falciparum proliferation (AID 504749); further: nearly all actives have a fitted effect of over 60% in size
assayContext: P. falciparum in erythrocytes, SYBR Green DNA, 72 h; series mostly up to 28.7 µM
Results filed as inconclusive are left out. Calls of active or inactive are those of the source. Calls come from the whole dose curve; as a rule, active = well fitted inhibition curve with a large enough effect; inconclusive = small, poorly fitted or top-dose-only effect; inactive = flat fitted curve, though single readings scatter.
Labels: YES for active, NO for inactive

In [3]: df
Out[3]:
                                   compound  grouplabel
0  CCCCC(=O)N(Cc1ccc(-c2ccccc2-c2nn[nH]n2)cc1)C(C(=O)O)C(C)C (configuration not stated)          NO
1  O=C(CC1NCCC[C@H]1O)Cn1cnc2cc(Br)c(Cl)cc2c1=O (some centres not stated)         YES
2  CCOC(=O)C(CCc1ccccc1)NC1CCc2ccccc2N(CC(=O)O)C1=O (configuration not stated)          NO
3     C[C@@H](C(=O)O)c1ccc(-c2ccccc2)c(F)c1          NO
4  CC(C)C[C@@H](NC(=O)[C@H](Cc1ccccc1)NC(=O)c1cnccn1)B(O)O         YES
5  CC(=O)[C@H]1CC[C@H]2C3CC=C4C[C@@H](O)CC[C@]4(C)C3CC[C@]12C (some centres not stated)          NO
6  C/C=C1\C2C=C(C)CC1(N)c1ccc(=O)[nH]c1C2 (configuration not stated)          NO
